# test details: chemical genetic growth profiling, strain panel (AID 1159580);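 also: tested at 20 µM; growth read once vehicle control cultures reached saturation at 30 °C; lower values mean less growth of the strain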
# settings: S. cerevisiae deletion strains, growth OD, locus YNR052C, strain pop2
Screen size: about 5,500 compounds; about 2,000 (36%) were called active. Not shown: some 18% with an inconclusive outcome. Rule as the data show it: active = normalized growth mostly below about 0.91 (no sharp cut-off); inconclusive = no clear call, values can overlap the other calls; inactive = mostly above about 0.92. The list shows a part of the results.
One label from this list, please: y for active, n for inactive

# count of solved cases: 5
compound	category
CC1(C)C=CC(=O)[C@@]2(C)C1CC(=O)[C@]1(C)C2CC[C@@]2(C)[C@H](c3ccoc3)OC(=O)C3OC321 (stereo partly drawn)	n
CCCCCc1c2c(cc(O)c1C(=O)O)OC(=O)c1c(cc(OC)cc1C(=O)CCCC)O2	n
CC(C)[N+](C)(CCC(C(N)=O)(c1ccccc1)c1ccccc1)C(C)C	n
CCN(Cc1ccncc1)C(=O)C(CO)c1ccccc1 (stereo not drawn)	n
CC1O[C@@H](Oc2c(-c3ccc(O)c(O)c3)oc3cc(O)cc(O)c3c2=O)[C@H](O)[C@H](O)[C@H]1O (stereo partly drawn)	n

# input Entry COc1ccc(-c2oc3cc(O[C@H]4O[C@H](CO)[C@@H](O)[C@H](O)[C@H]4O)c(OC)c(O)c3c(=O)c2OC)cc1O : call = ?
# output n

# input Hi, do you know how O=C(Cc1cccs1)NC1C(=O)N2C(C(=O)[O-])=C(C[n+]3ccccc3)CSC12 (stereo not drawn) came out in this test?
# output n

Source of measurements: PubChem BioAssay AID1159580
